assayedTarget: Phenylethanolamine N-methyltransferase (Bos taurus) (UniProt P10938)
Sequence (P10938 whole entry): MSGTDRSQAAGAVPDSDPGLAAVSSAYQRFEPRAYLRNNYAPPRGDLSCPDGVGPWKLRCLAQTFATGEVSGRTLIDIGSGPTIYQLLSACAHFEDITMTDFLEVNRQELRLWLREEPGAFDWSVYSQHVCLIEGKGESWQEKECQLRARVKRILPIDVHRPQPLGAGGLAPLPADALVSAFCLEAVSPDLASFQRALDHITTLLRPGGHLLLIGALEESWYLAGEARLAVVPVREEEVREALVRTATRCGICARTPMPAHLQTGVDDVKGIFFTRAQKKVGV
protocol: Inhibition of bovine adrenal medulla phenylethanolamine-N-methyl transferase at 10 uM
Assay type: tissue-based
Active and inactive are the calls of the source. The rule behind the calls is not given here.
observedProperty: Activity

NCc1cccc(CC2CCCNC2=O)c1 (stereo not drawn) | inactive
O=C(O)c1ccccc1C1CCCNC1 (stereo not drawn) | inactive
O=C(O)CCC(=O)Nc1ccc(-c2ccoc2)cc1 | inactive
Nc1cccc(-c2ccoc2)c1 | inactive
OCc1ccccc1C1CCCNC1 (stereo not drawn) | inactive
N#Cc1cccc(CN2CCCCC2=O)c1 | inactive

Determine from records and report Activity for `Nc1ccc(-c2ccoc2)cc1` inactive

Look up Activity of N#Cc1cccc(CC2CCCNC2=O)c1 (stereo not drawn) and report it. inactive
